measured target: PDGF-AA (UniProt P04085 87-211)
measurement notes: SPR; SPR: PBS (137 mM NaCl, 2.7 mM KCl, 8 mM Na2HPO4, 2 mM KH2PO4) pH 7.4, 25 °C, protein on CM5; EMSA: 50 mM Tris-HCl, 100 mM KCl, pH 7.5, room temperature, 1 uM RNA, 15% PAGE in TBE
condition summary: protein: commercial; chain copies: 2; parallel G4
Measured Kd by item
Just the number in µM, nothing appended.

As a guide, the following entries are already answered.
binder | units symbol | observed
GGGCACUCGGGUAGGGGGAGGACUAGGG (structured_RNA) [PDGFB intronic G4_2] | µM | 0.02
GGGGUGCGGGGAGCGGGGAAGGG (structured_RNA) [PDGFA intronic G4_2] | µM | 0.03

**Q:** Please give the measured Kd for this binder: GGAGGAGGGGGAGGAGGA (structured_RNA) [VEGFA 5' UTR G4]
**A:** 0.06
